Answer each item with its documented ER.
- experimentSummary: Eudismic ratio was measured
- Type: functional
Lab note: jot the number down without any unit.

Need ER of "C[C@@H]1O[C@H](C[N+](C)(C)C)CS1" , thanks. 170

Quick one: ER for CN1OC(C[N+](C)(C)C)CC1=O (racemic) ? 2.5

Field request: ER | item: C[C@H]1OC[C@@H](C[N+](C)(C)C)O1 (racemic) 59

# get_value(readout='ER', item= "C[C@H]1OC[C@@H](C[N+](C)(C)C)O1" ) 59

Return reported ER; argument: C[C@@H]1O[C@H](C[N+](C)(C)C)CC1=O (racemic) 3.1

Name the recorded ER for CN1OC(C[N+](C)(C)C)CC1=O (stereo in doubt; 4) . 2.5

Form field: reported ER of C[C@@H]1O[C@H](C[N+](C)(C)C)CS1 (mixture of isomers) 170

Dear colleague, I am looking for the recorded ER of the following compound: "C[C@@H]1O[C@H](C[N+](C)(C)C)CC1=O" 3.1

Name the recorded ER for C[C@@H]1O[C@H](C[N+](C)(C)C)CC1O (mixture of isomers) . 331

Requested read-out: ER. Entry: "C[C@@H]1O[C@H](C[N+](C)(C)C)C[C@H]1O" 331
